Experiment: eIF4E expression suppression, luciferase knock-in reporter – cell-based, HT1080, primary screen (AID 1224817);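 note: luciferase reports endogenous eIF4E expression since it is co-expressed from the native EIF4E locus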
Details: HT1080 EIF4E-luc2 knock-in reporter, 16 h, at 2.5 µM
The whole screen tested about 2,000 compounds, of which about 25 (1%) were called active.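 Rule for the calls: active = log2 luciferase ratio at or below -0.5849, meaning signal at two thirds of solvent-only control or lower; inactive = the rest.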 This is one part of a sample in which actives are shown more often than they occur.
Valid outcomes are listed here; reply with one: active, inactive

Please let me know the test result on file for CC(C)=CCNc1ncnc2c1c(C#N)cn2C1OC(CO)C(O)C1O (configuration not stated) .
inactive

What would you report for `CN(C)Cc1cc(C(=O)O)cc(CN(C)C)c1O` ?
inactive

What would you report for Cc1ccc(C)c(C2NC(=O)c3ccccc3N2)c1 (configuration not stated) ?
active

What would you report for CC1CN(CCO)CCN1c1ccccc1 (configuration not stated) ?
inactive

What would you report for `Cc1cc(N2CCCCC2)nc2ccc(Cc3ccc4nc(N5CCCCC5)cc(C)c4c3)cc12` ?
inactive

---

Test: eIF4E expression suppression, luciferase knock-in reporter – cell-based, HT1080, primary screen (AID 1224817)
Details: HT1080 EIF4E-luc2 knock-in reporter, 16 h, at 2.5 µM, active compounds read low
Out of some 2,000 compounds screened, about 25 (1%) were called active. The full list was thinned out, with actives kept by preference.
measured-quantity: log2 luciferase activity ratio
Hey, just send me the number, nothing else.

# annotated cases, reported log2 luciferase activity ratio shown
>>> result_number("COC(=O)[C@]1(C)CCC[C@]2(C)C3=CC(=O)[C@@]4(C(C)C)O[C@H]4[C@]3(O)CC[C@@H]12")
-0.359
>>> result_number("COc1ccc2nc3cc(Cl)ccc3c(Nc3ccc(O)c(CN4CCN(C)CC4)c3)c2c1")
0.0343
>>> result_number("NCCNCC(O)CO (stereo unspecified)")
0.073
>>> result_number("O=C(O)[C@@H]1[C@H](C(=O)O)[C@H](C(=O)O)C[C@@H]1C(=O)O")
-0.306
>>> result_number("NNC(=O)CCc1ccc2ccc3ccccc3c2c1")
-0.0063

Here's the next entry for you.
Any idea what log2 luciferase activity ratio was measured for O=C(O)CC(Sc1ccccc1)c1ccccc1 (stereo unspecified) ?
0.113

---

Test: eIF4E expression suppression, luciferase knock-in reporter – cell-based, HT1080, primary screen (AID 1224817)
Conditions: HT1080 EIF4E-luc2 knock-in reporter, 16 h, at 2.5 µM, active compounds read low
Hit rate of the full screen: of about 2,000 compounds, about 25 (1%) were called active. Only a selection was taken, and actives are over-represented in it overall.
Assign labels as follows, please: satisfied for log2 luciferase activity ratio below 0.03; not satisfied for log2 luciferase activity ratio equal to or exceeding 0.03.

// known answers, use as guide
>>> classification("O=C1OC(c2ccc(O)c(-c3ccccc3)c2)(c2ccc(O)c(-c3ccccc3)c2)c2c(Cl)c(Cl)c(Cl)c(Cl)c21")
"satisfied"
>>> classification("NC(Cc1nn[nH]n1)C(=O)O (stereo not drawn)")
"satisfied"
>>> classification("C/C(=N\\NC(=O)c1ccncc1)c1ccccc1Cl")
"not satisfied"

Given the entry `O=C1C(Cl)=C(Sc2nnc3c4ccccc4c4ccccc4c3n2)C(=O)c2ccccc21` , would its reported log2 luciferase activity ratio be below 0.03?
not satisfied

What would you report for O=C(O)C1C(C(=O)O)C2C(=O)C=CC1N2Cc1ccccc1 (stereo not drawn) ?
not satisfied

What would you report for `O=C(O)CNC(=O)c1ccccc1O` ?
not satisfied

What would you report for `NNC(=O)CS(=O)(=O)Nc1ncccn1` ?
satisfied

What would you report for CC1(C)C(CC(=O)O)CCCC1CC(=O)O (stereo not drawn) ?
satisfied

What would you report for `Nc1ccc(N=Nc2ccc(-c3ccc(O)cc3)cc2)c2ccc(S(=O)(=O)O)cc12` ?
not satisfied

What would you report for `Fc1cccc(Cl)c1/C=N\N=C1c2ccccc2-c2ccccc21` ?
satisfied

What would you report for `COc1cccc2[nH]c(-c3ccccn3)nc12` ?
not satisfied

What would you report for `CCCNc1ncnc2[nH]ncc12` ?
satisfied

What would you report for `Oc1c(C(O)(c2ccccc2)c2ccc3ccccc3c2O)ccc2ccccc12` ?
not satisfied

What would you report for `C[n+]1cccc(/C=C/c2ccc3cccc(O)c3n2)c1` ?
not satisfied

What would you report for `CN(CCO)Cc1ncccc1O` ?
satisfied

What would you report for CNC(c1ccncc1)C(NC)c1ccncc1 (stereo not drawn) ?
not satisfied

---

Test: eIF4E expression suppression, luciferase knock-in reporter – cell-based, HT1080, primary screen (AID 1224817)
Details: HT1080 EIF4E-luc2 knock-in reporter, 16 h, at 2.5 µM, active compounds read low
Screen size: about 2,000 compounds; about 25 (1%) were called active. The list comes from a sample in which actives are over-represented; it also holds close analogues and randomly drawn compounds.
# binning rule on log2 luciferase activity ratio: lower segment (below -0.2), middle segment (-0.2 to below -0.08), upper segment (-0.08 or more)

>>> classification("O=C(O)CCSC1=NCCN1")
"lower segment"
>>> classification("CC1CCCC(CC(=O)O)(CC(=O)O)C1 (configuration not stated)")
"upper segment"
>>> classification("CC1(CC(=O)O)OC2CCCCCC2O1 (configuration not stated) (tested in a mixture with another compound)")
"upper segment"
>>> classification("O=C(O)C1CC[N-]CC1.O=C(O)C1CC[N-]CC1.[Cl][Pt+2]([Cl])([Cl])[Cl]")
"lower segment"
>>> classification("Cc1cc(=Nc2ccc3c(c2)c(N)cc(C)[n+]3C)nc(N)n1C")
"middle segment"

Hello team, could you let me know which band the following compound falls into: `O=C(O)CC1(C(=O)O)CCCCC1`
lower segment

What would you report for `O=C(O)/C(=C/c1ccccc1)c1ccccc1` ?
middle segment

---

log2 luciferase activity ratio listing for selected compounds.
Test: eIF4E expression suppression, luciferase knock-in reporter – cell-based, HT1080, primary screen (AID 1224817);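 note: luciferase reports endogenous eIF4E expression since it is co-expressed from the native EIF4E locus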
Settings: HT1080 EIF4E-luc2 knock-in reporter, 16 h, at 2.5 µM, active compounds read low
In all, about 2,000 compounds went through this assay and about 25 (1%) were called active. The entries come from a sample that favours actives as a whole.

# annotated cases, reported log2 luciferase activity ratio shown
>>> result("O=P(O)(CCP(=O)(O)c1ccccc1)c1ccccc1")
"0.225 (inactive)"
>>> result("NC(N)=NC(N)=Nc1c(F)c(F)c(F)c(F)c1F")
"0.115 (inactive)"
>>> result("O=C(O)CCn1cnc2c(=S)nc[nH]c21")
"-0.179 (inactive)"

Any idea what log2 luciferase activity ratio was measured for COC(=O)C1OC(SCCN)C(O)C(O)C1O (stereo not given) ?
0.246 (inactive)

What would you report for `CS(=O)(=O)Nc1ccc(Nc2c3ccccc3nc3ccccc23)cc1` ?
0.308 (inactive)

What would you report for `Cc1ccc(S(=O)(=O)OCC(=O)O)cc1` ?
0.01 (inactive)

What would you report for `Cn1c([N+](=O)[O-])cnc1CN1CCN(CCO)CC1` ?
0.268 (inactive)

What would you report for CC1=CC(C2/C(=N/O)C=C(C)CC2(C)C)C(O)C(C)(C)C1 (stereo not given) ?
-0.118 (inactive)

What would you report for `CC(C)(C)c1cc(Br)c(O)c(CN(Cc2cc(C(C)(C)C)cc(Br)c2O)C2CCCCC2)c1` ?
0.147 (inactive)

What would you report for `Cc1nn(-c2ccc(S(=O)(=O)[O-])cc2)c([O-])c1N=[N+](C)c1ccc(-c2ccc(N=Nc3ccc4c(S(=O)(=O)[O-])cc(S(=O)(=O)[O-])c(N)c4c3[O-])c([O-])c2)cc1[O-].[Cu+2].[Cu+2].[Na+]` ?
0.162 (inactive)

---

Assay: eIF4E expression suppression, luciferase knock-in reporter – cell-based, HT1080, primary screen (AID 1224817);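 note: luciferase reports endogenous eIF4E expression since it is co-expressed from the native EIF4E locus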
Conditions: HT1080 EIF4E-luc2 knock-in reporter, 16 h, at 2.5 µM
About 25 (1%) of roughly 2,000 compounds were called active.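 The calls were made as follows: active = log2 luciferase ratio at or below -0.5849, meaning signal at two thirds of solvent-only control or lower; inactive = the rest.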 This excerpt belongs to a sample that is enriched for actives.
Valid outcomes are listed here; reply with one: active, inactive

// known answers, use as guide
>>> classification("O=C(O)c1ccc(NS(=O)(=O)Cc2ccccc2)cc1")
"inactive"
>>> classification("NC(=O)N/N=C1/CCC(O)CC1CC(=O)O (stereo not drawn)")
"inactive"
>>> classification("Nc1ccccc1N=Nc1c(S(=O)(=O)O)cc2cc(S(=O)(=O)O)cc(O)c2c1O")
"inactive"

Please let me know the test result on file for `O=C(O)Cc1c[nH]c2ccc(F)cc12` .
active

What would you report for `O=C(O)C(=O)/C=C(\O)c1ccc(Br)cc1` ?
inactive

What would you report for NC(CCCCO)C(=O)O (stereo not drawn) ?
inactive

What would you report for `NCCSCCC(=O)O` ?
inactive

What would you report for CC12CCC3c4ccc(O)cc4CCC3C1C/C(=N\O)C2O (stereo not drawn) ?
inactive

---

log2 luciferase activity ratio listing for selected compounds.
Assay: eIF4E expression suppression, luciferase knock-in reporter – cell-based, HT1080, primary screen (AID 1224817);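 note: luciferase reports endogenous eIF4E expression since it is co-expressed from the native EIF4E locus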
Conditions: HT1080 EIF4E-luc2 knock-in reporter, 16 h, at 2.5 µM, active compounds read low
About 25 (1%) of roughly 2,000 compounds were called active. The sample as a whole holds a higher share of actives than the screen did.
Hey, just send me the number, nothing else.

Any idea what log2 luciferase activity ratio was measured for OC1(c2ccccc2)c2ccccc2NC2=NCCN21 (stereo not drawn) ?
0.416

What would you report for OC(c1cc(C23CC4CC(CC(C4)C2)C3)nc2c(Cl)cc(Cl)cc12)C1CCCCN1 (stereo not drawn) ?
0.104

What would you report for `N=C(N)c1ccc(/C=C/c2ccc(C(=N)N)cc2)cc1` ?
-0.247
